# System: MCF7 breast
# protocolDetails: NCI-60 one-dose screen, 48 h (100 = growth as untreated, 0 = no growth, -100 = all killed)
# cond: 10 µM unless noted
This is part of a sample that, as a whole, favours compounds with a hit. Of some 83,000 tested, about 20% had one in any assay.
Decide using growth: a value greater than or equal to 60% is Condition met, a smaller one is Condition not met.

inputsmiles=COc1nc2ccccc2cc1-c1nc2c(cnn2-c2ccc(Br)cc2)c(=O)[nH]1 label="Condition not met"
inputsmiles=Cc1ccc2c(-c3cc(-c4ccccc4)nc(N)c3C#N)cc(=O)oc2c1 label="Condition met"
inputsmiles=C#C[C@]1(O)CC[C@H]2[C@@H]3CC=C4c5sc(Nc6ccccc6)nc5CC[C@]4(C)[C@H]3CC[C@@]21C label="Condition not met"
inputsmiles=O=C1COCCN1c1ccc(NCc2cn(C(=O)c3ccc(Cl)cc3)c3ccccc23)cc1 label="Condition not met"
inputsmiles=O=c1c2cc(C(F)(F)F)ccc2sc2c(NCCCNCCO)nc3ccccc3c12 label="Condition not met"
inputsmiles=c1ccc2cc(C[n+]3ccn(CCCCCCn4cc[n+](Cc5ccc6ccccc6c5)c4)c3)ccc2c1 label="Condition not met"
inputsmiles=COc1ccc(CNC(=O)[C@H](O)[C@@H](N)Cc2ccccc2)cc1 label="Condition met"
inputsmiles=CCc1nnc(NC(=O)c2nnn(-c3ccccc3)c2-c2ccco2)s1 label="Condition met"
inputsmiles=COC(=O)c1ccc2[nH]c(O)c(C(=Nc3ccc(N(C)C(=O)CN4CCN(C)CC4)cc3)c3ccccc3)c2c1 label="Condition not met"

====

# Test system: OVCAR-5 ovarian
# protocolDetails: NCI-60 one-dose screen, 48 h
# cond: 10 µM unless noted
About 83,000 compounds went through this panel and 20% of them were active in at least one assay; those are over-represented in the sample as a whole. Activity calls are given as the source filed them. The calls were made as follows: active = growth percent below 10; inactive = the rest.
Classes used: True = active, False = inactive

compound=COc1ccc(-c2cnc3ccccc3n2)cc1 label=False
compound=COc1ccc(-c2[nH]ncc2-c2cc3c(c(OC)c2)OCC(=O)N3)cc1 label=False
compound="CC(=O)OC[C@H]1OC(Sc2sc(C(=O)c3ccc(C)cc3)c(N)c2-c2nc3ccccc3s2)[C@H](OC(C)=O)[C@@H](OC(C)=O)[C@@H]1OC(C)=O (stereo not given in full)" label=False
compound=Cc1ccc2c(-c3cc(-c4ccccc4)nc(N)c3C#N)cc(=O)oc2c1 label=False
compound=C#Cc1cccc(NC(=O)Nc2ccccc2NC(=O)CCl)c1 label=True
compound=COc1cccc(-c2nc(-c3ccc(NS(=O)(=O)c4ccccc4)cc3)[nH]c2-c2ccnc(Br)c2)c1 label=False
compound=CCOC(=O)c1c(C)nc2c(c1N)CC(=O)N2Cc1ccc(F)cc1 label=False
compound=COc1cccc(-c2nn(-c3ccccc3)cc2-c2ccnc(N3CCOCC3)c2)c1 label=False
compound=C=C(C)[C@@H]1CC[C@]2(N=C=O)CC[C@]3(C)[C@H](CC[C@@H]4[C@@]5(C)Cc6c([nH]c7ccccc67)C(C)(C)[C@@H]5CC[C@]43C)[C@@H]12 label=False
compound=c1ccc(Nc2cc(-c3cccnc3)[nH]n2)cc1 label=False

====

# System: HOP-62 NSCLC
# protocolDetails: NCI-60 one-dose screen, 48 h (100 = growth as untreated, 0 = no growth, -100 = all killed)
# cond: 10 µM unless noted
Compounds without any hit were thinned out: in the full panel of roughly 83,000, 20% have a hit. The source made the active and inactive calls. Rule for the calls: active = growth percent below 10; inactive = the rest.
In this section we review reported growth values for a set of compounds.
observable: growth

compound=COc1ccc2nc(NCCCNCCO)c3sc4ccc(F)cc4c(=O)c3c2c1 recordedresult="74% (inactive)"
compound=CCN(CC)CCNc1nc2ccccc2c2c(=O)c3cc(Cl)ccc3sc12 recordedresult="76.7% (inactive)"
compound=CCOC(=O)c1c(C)oc2ncnc(N3CCN(C(=O)COc4ccc(C(C)(C)C)cc4)CC3)c12 recordedresult="90.8% (inactive)"
compound="COc1ccc(C2C(N)=NNC2c2cccc(O)c2)cc1 (stereo not given)" recordedresult="90.2% (inactive)"
compound=CN(C)CCS(=O)(=O)Nc1cc(-c2ccc3ncc(C#N)c(Nc4ccc(F)c(Cl)c4)c3c2)cnc1Cl recordedresult="0.0433% (active)"
compound=COc1ccc(CNC(=O)C(=O)[C@H](Cc2ccccc2)NC(=O)c2[nH]c3ccccc3c(=O)c2C)cc1 recordedresult="102% (inactive)"
compound=O=c1cc(SCc2ccccc2)nc[nH]1 recordedresult="91.1% (inactive)"
compound=CCCCCCCCCCCCCCCCCCOc1ccccc1CC(=O)OCC[N+](CC)(CC)CC recordedresult="41% (inactive)"
compound=Cc1ccc(-c2nc3c(c(-c4ccccc4)nn3-c3ccccc3)c(-c3ccc(O)cc3)c2C#N)cc1 recordedresult="40% (inactive)"
compound=CCCCOc1ccc(/C=N/NC(N)=S)cc1 recordedresult="116% (inactive)"
compound="COc1cc(C(=O)N2N=C(c3ccc(S(C)(=O)=O)cc3)CC2c2ccco2)cc(OC)c1OC (stereo not given)" recordedresult="67.3% (inactive)"
compound=COC(=O)c1ccc2[nH]c(O)c(C(=Nc3ccc(N(C)C(=O)CN4CCN(C)CC4)cc3)c3ccccc3)c2c1 recordedresult="26.1% (inactive)"
compound=NS(=O)(=O)c1ccc(N=Nc2ccc(-c3nn4cc(-c5ccccc5)nc4s3)cc2)cc1 recordedresult="83% (inactive)"
compound=COc1ccc(/C=C2\Oc3cc(OCCN4CCC(Cc5ccccc5)CC4)ccc3C2=O)cc1OC recordedresult="78.6% (inactive)"
compound="N#CC1=C(N)Oc2c(sc3c(Br)cccc23)C1c1ccc([N+](=O)[O-])cc1 (stereo not given)" recordedresult="26.6% (inactive)"
compound=COc1cccc(/C=C2\C=C(c3ccccc3)N(Cc3ccccc3)C2=O)c1 recordedresult="69.4% (inactive)"
compound="COc1ccc(C(Cc2ccccc2)NCCN2CCOCC2)cc1 (stereo not given)" recordedresult="93.1% (inactive)"
compound=Cc1cccc2c(=O)c3c(sc12)c(NCc1ccccc1)nc1ccccc13 recordedresult="87.5% (inactive)"
compound=NS(=O)(=O)c1ccc(-n2nc(-c3ccc(Cl)cc3)c3ccccc3c2=O)cc1 recordedresult="92.6% (inactive)"
compound=COc1ccc(/C=N/Nc2cc(=O)[nH]c3ccc(Cl)cc23)cc1 recordedresult="71.9% (inactive)"
compound=CCCCCCNC(=O)Oc1ccc(/C(=C(\C)c2ccc(OC)cc2)c2ccc(OCCN3CCCCC3)cc2)cc1 recordedresult="72% (inactive)"
compound=COc1ccc(CN2c3ccccc3Sc3ccccc32)c(F)c1 recordedresult="26.6% (inactive)"
compound=N#Cc1c(Nc2cccc(Cl)c2)sc(C(=O)c2cc3cc(Cl)ccc3o2)c1N recordedresult="107% (inactive)"
compound=CN(C)CCCNc1nc2ccccc2c2c(=O)c3cc(F)ccc3sc12 recordedresult="65% (inactive)"
compound=COc1ccc2nc(NC(=O)c3cccnc3Nc3ccc(S(N)(=O)=O)cc3)sc2c1 recordedresult="109% (inactive)"
compound=O=C(Nc1ccc(-c2nc(-c3cccc(OCCN4CCOCC4)c3)c(-c3ccnc(Br)c3)[nH]2)cc1)c1ccccc1 recordedresult="-1.45% (active)"
compound=N#Cc1c(-c2ccc(Cl)cc2)nc2c(c(-c3ccccc3)nn2-c2ccccc2)c1-c1ccc(O)cc1 recordedresult="49.9% (inactive)"
compound=c1ccc(Cc2nn3cc(-c4ccccc4)nc3s2)cc1 recordedresult="104% (inactive)"
compound=O=C(N/N=C/[C@H](O)[C@@H](O)[C@@H](O)[C@H](O)CO)c1ccc(NC(=O)c2cccnc2)cc1 recordedresult="113% (inactive)"
compound=COc1ccc(-c2nc(NCCO)[nH]c(=O)c2C#N)cc1 recordedresult="86.3% (inactive)"
compound=Brc1ccc2[nH]cc(-c3nc(-c4c[nH]c5ccncc45)cs3)c2c1 recordedresult="-79.1% (active)"
compound=COc1ccc2[nH]c(-c3ccccc3)c(/C=C(\C#N)S(=O)(=O)c3ccccc3)c2c1 recordedresult="79.1% (inactive)"
compound=NCCCNc1nc2ccccc2c2c(=O)c3cc(F)cc(Cl)c3sc12 recordedresult="92.6% (inactive)"
compound=Cc1ccc(/C=N\NC(=O)c2[nH]c3ccc(F)cc3c2-c2ccccc2)cc1 recordedresult="42.3% (inactive)"
compound=CCCCCCNC(=O)Oc1ccc(/C(=C(\C)c2ccc(Cl)cc2)c2ccc(OCCCN(C)C)cc2)cc1 recordedresult="97% (inactive)"
compound=Cc1nn(-c2ccccc2)c(-n2ccnc2)c1/C=N/Nc1nc(-c2ccc(F)cc2)cs1 recordedresult="98.8% (inactive)"
compound=CNc1ccc(Nc2cccc(C)c2)c2c1C(=O)c1ccccc1C2=O recordedresult="102% (inactive)"
compound=CCCCOc1nc2ccc(OC)cc2cc1-c1cc(-c2ccc(Cl)cc2)nc(-c2ccc(Cl)cc2)c1 recordedresult="110% (inactive)"
compound="CCOC(=O)C1=C(N)Oc2c(sc3c(C)cccc23)C1c1ccc(Cl)cc1 (stereo not given)" recordedresult="31.8% (inactive)"
compound="COc1ccc(S(=O)(=O)n2cc(C3OC(c4cc(OC)c(OC)c(OC)c4)=NN3C(C)=O)c3ccccc32)cc1OC (stereo not given)" recordedresult="78.1% (inactive)"
